Data origin, for the record: ChEMBL document CHEMBL3885881

# Species: Rattus norvegicus
# test_name: DrugMatrix - Regimen: Daily Repeat
# Assay type: toxicity, organism-based, Sprague-Dawley
# Design: regimen Daily Repeat, gender Male, age 6-8 weeks
# conditions: in vivo, ip, 40 mg/kg, […], tissue Blood, route intraperitoneal, dose level High, time 14 day, vehicle 100 % SALINE
measured_attribute: ABSOLUTE EOSINOPHIL (cells/µL)
Reply numerically in cells/µL, unit not repeated.

Ask: Entry CCN[C@@H]1C[C@H](N)[C@@H](O[C@H]2OC(CN)=CC[C@H]2N)[C@H](O)[C@H]1O[C@H]1OC[C@](C)(O)[C@H](NC)[C@H]1O [NETILMICIN] has what ABSOLUTE EOSINOPHIL?
Reply: 100

* * *

Give MONOCYTE for every item shown.
# Species: Rattus norvegicus
# test_name: DrugMatrix - Regimen: Daily Repeat
# Format: toxicity, organism-based, Sprague-Dawley
# Parameters: regimen Daily Repeat, gender Male, age 6-8 weeks
# conditions: in vivo, po, 0 mg/kg, 72 h, tissue Blood, route oral GAVAGE, dose level Control, time 3 day, […]
Your answer should be a plain number; it is taken to be in %.

Ask: Which MONOCYTE value belongs to CC(C)Cc1ccc(C(C)C(=O)O)cc1 (configuration not stated) [IBUPROFEN] ?
Reply: 4.67

Ask: Fill blank: measured MONOCYTE of the molecule CCCCCCCCc1ccc(O)cc1 [4-OCTYLPHENOL] is ____.
Reply: 1.5

Ask: Sample COc1ccc2[nH]c([S+]([O-])Cc3ncc(C)c(OC)c3C)nc2c1 (configuration not stated) [OMEPRAZOLE] — what was its MONOCYTE?
Reply: 1.5

Ask: Dear colleague, I am looking for the recorded MONOCYTE of the following molecule: Cc1cccc(Nc2ccncc2S(=O)(=O)NC(=O)NC(C)C)c1 [TORSEMIDE]
Reply: 2.5

Ask: If you can, please state the reported MONOCYTE value of S=C=Nc1cccc2ccccc12 [1-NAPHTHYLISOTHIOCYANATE] .
Reply: 1.83

Ask: Request the reported MONOCYTE associated with CC(C)(Oc1ccc(C2CCCc3ccccc32)cc1)C(=O)O (configuration not stated) [NAFENOPIN]
Reply: 2

Ask: Query (molecule): COCCOC(=O)C1=C(C)NC(C)=C(C(=O)OC(C)C)C1c1cccc([N+](=O)[O-])c1 (configuration not stated) [NIMODIPINE] ; field requested: MONOCYTE
Reply: 1

* * *

# Species: Rattus norvegicus
# test_name: DrugMatrix - Regimen: Daily Repeat
# Assay type: toxicity, organism-based, Sprague-Dawley
# Design: regimen Daily Repeat, gender Male, age 6-8 weeks
# conditions: in vivo, po, 0 mg/kg, 72 h, tissue Blood, route oral GAVAGE, dose level Control, time 3 day, […]
For each of the compounds below, state its ABSOLUTE BASOPHIL.

Ask: Requested read-out: ABSOLUTE BASOPHIL. Entry: CC(C)(Oc1ccc(C2CCCc3ccccc32)cc1)C(=O)O (stereo not given)
Reply: 0 CELLS/uL

Ask: What value of ABSOLUTE BASOPHIL has been reported for the following compound? Clc1ccc(Cl)cc1
Reply: 50 cells/µL

Ask: # lookup: ABSOLUTE BASOPHIL of COc1ccc2cc([C@H](C)C(=O)O)ccc2c1
Reply: 0 CELLS/uL

Ask: Record request: ABSOLUTE BASOPHIL value, item CC(=O)N1CCN(c2ccc(OCC3COC(Cn4ccnc4)(c4ccc(Cl)cc4Cl)O3)cc2)CC1 (stereo not given)
Reply: 0 CELLS/uL

Ask: Param item = CC(=O)Nc1cccc(O)c1 ; retrieve measured ABSOLUTE BASOPHIL.
Reply: 0 CELLS/uL
